// data source = patent US8143290B2

Target: recombinant human GR (Homo sapiens)
Sequence (P04150 whole entry): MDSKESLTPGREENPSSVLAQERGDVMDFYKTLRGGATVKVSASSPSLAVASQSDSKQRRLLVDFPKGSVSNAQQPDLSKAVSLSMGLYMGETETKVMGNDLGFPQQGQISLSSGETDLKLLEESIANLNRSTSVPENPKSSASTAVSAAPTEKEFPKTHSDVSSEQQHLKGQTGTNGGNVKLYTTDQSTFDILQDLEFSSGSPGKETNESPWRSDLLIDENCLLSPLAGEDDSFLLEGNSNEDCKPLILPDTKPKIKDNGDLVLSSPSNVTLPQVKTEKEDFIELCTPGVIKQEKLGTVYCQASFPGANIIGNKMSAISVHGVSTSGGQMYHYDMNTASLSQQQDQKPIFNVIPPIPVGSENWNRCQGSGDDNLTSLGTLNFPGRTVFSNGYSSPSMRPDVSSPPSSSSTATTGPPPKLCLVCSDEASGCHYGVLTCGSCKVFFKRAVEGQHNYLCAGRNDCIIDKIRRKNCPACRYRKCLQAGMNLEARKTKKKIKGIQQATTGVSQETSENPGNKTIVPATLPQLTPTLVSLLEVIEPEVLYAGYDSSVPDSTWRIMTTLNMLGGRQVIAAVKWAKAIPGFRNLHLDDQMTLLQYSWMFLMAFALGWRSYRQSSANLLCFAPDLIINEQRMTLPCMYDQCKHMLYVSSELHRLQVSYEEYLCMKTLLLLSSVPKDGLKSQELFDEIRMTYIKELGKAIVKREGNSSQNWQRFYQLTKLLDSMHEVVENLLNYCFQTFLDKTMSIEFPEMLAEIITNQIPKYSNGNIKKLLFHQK
Experiment: Human Glucocorticoid Receptor (GR) Assay, fluorescence polarization
Details: GS Red tracer, incubated 2 h at r.t., XLfit model 205, read-out: GRhuFL_FP_v2 Mean IC50
property measured: IC50 (nM)
Value expressed in nM; do not type the unit.

Query block: Fill in: IC50 of C[C@H](NC(=O)CO)[C@@H](Cc1ccccc1)Oc1ccc2c(cnn2-c2ccc(F)cc2)c1 is ___
Result block: 3.7

Query block: Fill in: IC50 of C[C@H](NC(=O)C1CCC1)[C@H](Oc1ccc2c(cnn2-c2ccc(F)cc2)c1)c1ccccc1 is ___
Result block: 2.2

Query block: Fill in: IC50 of COCC(=O)N[C@@H](C)[C@H](Oc1ccc2c(cnn2-c2ccc(F)cc2)c1)c1cccc(F)c1 is ___
Result block: 4.2

Query block: Fill in: IC50 of C[C@H](NC(=O)C(F)(F)F)[C@H](Oc1ccc2c(cnn2-c2ccc(CN(C)C)cc2)c1)c1ccccc1 is ___
Result block: 23

Query block: Fill in: IC50 of C[C@H](NC(=O)C(F)(F)F)[C@@H](COc1ccc(F)cc1F)Oc1ccc2c(cnn2-c2ccc(F)cc2)c1 is ___
Result block: 8.3

Query block: Fill in: IC50 of COCCOCC(=O)N[C@@H](C)[C@H](Oc1ccc2c(cnn2-c2ccc(F)cc2)c1)c1cccc(OC)c1 is ___
Result block: 4.6

Query block: Fill in: IC50 of C[C@H](NC(=S)NCc1ccco1)[C@H](Oc1ccc2c(cnn2-c2ccc(F)cc2)c1)c1ccccc1 is ___
Result block: 4.9

----------
Would you mind telling me the reported pIC50 of each entry?
Molecular target: recombinant human GR (Homo sapiens)
Test: Human Glucocorticoid Receptor (GR) Assay, fluorescence polarization
Settings: GS Red tracer, incubated 2 h at r.t., XLfit model 205, read-out: GRhuFL_FP_v2 Mean IC50
Bear in mind: pIC50 is minus log10 of a mol/L concentration; give just that figure.

Query block: Fill in: pIC50 of CC(=O)OCC(=O)N[C@@H](C)[C@H](Oc1ccc2c(cnn2-c2ccc(F)cc2)c1)c1ccccc1 [Example 34] is ___
Result block: 8.62

Query block: Fill in: pIC50 of CC(C)n1ncc2cc(O[C@H](c3ccccc3)[C@H](C)NC(=O)C(F)(F)F)ccc21 [Example 129] is ___
Result block: 7.96

Query block: Fill in: pIC50 of COc1ccc([C@@H](Oc2ccc3c(cnn3-c3ccc(F)cc3)c2)[C@H](C)NC(=O)C(C)(C)F)cc1F [Example 246] is ___
Result block: 8.22

Query block: Fill in: pIC50 of CCCc1ccc([C@@H](Oc2ccc3c(cnn3-c3ccc(F)cc3)c2)[C@H](C)NC(=O)C(F)(F)F)cc1 [Example 165] is ___
Result block: 8.19

Query block: Fill in: pIC50 of C[C@H](NC(=O)C(C)(C)F)[C@H](Oc1ccc2c(cnn2-c2ccc(F)cc2)c1)c1cccc(Cl)c1 [Example 247] is ___
Result block: 8.36

Query block: Fill in: pIC50 of Cc1ccc(C)c([C@@H](Oc2ccc3c(cnn3-c3ccc(F)cc3)c2)[C@H](C)NC(=O)C(C)(F)F)c1 [Example 266] is ___
Result block: 8.54

Query block: Fill in: pIC50 of COc1cccc([C@@H](Oc2ccc3c(cnn3-c3ccc(F)cc3)c2)[C@H](C)NC(=O)c2sc(C(F)(F)F)cc2O)c1 [Example 298] is ___
Result block: 7.82

Query block: Fill in: pIC50 of Cc1cc(F)ccc1[C@@H](Oc1ccc2c(cnn2-c2ccc(F)cc2)c1)[C@H](C)NC(=O)C(C)(C)CO [Example 256] is ___
Result block: 8.28

Query block: Fill in: pIC50 of COCC(=O)N[C@@H](C)[C@H](Oc1ccc2c(cnn2-c2ccc(F)cc2)c1)c1ccc(OC)c(F)c1 [Example 262] is ___
Result block: 8.35

Query block: Fill in: pIC50 of C[C@H](NC(=O)CO)[C@H](Oc1ccc2c(cnn2-c2ccc(F)cc2)c1)c1ccccc1 [Example 16] is ___
Result block: 8.62

Query block: Fill in: pIC50 of Cc1cc2c(cnn2-c2ccc(F)cc2)cc1O[C@H](c1ccccc1)[C@H](C)NC(=O)CO [Example 64] is ___
Result block: 8.41

Query block: Fill in: pIC50 of Cc1cnc(C(=O)N[C@@H](C)[C@H](Oc2ccc3c(cnn3-c3ccc(F)cc3)c2)c2ccc(F)c(F)c2)s1 [Example 193] is ___
Result block: 8.19

Query block: Fill in: pIC50 of CC(C)C(=O)N[C@@H](C)[C@H](Oc1ccc2c(cnn2-c2ccc(F)cc2)c1)c1ccccc1 [Example 37] is ___
Result block: 8.62

Query block: Fill in: pIC50 of Cc1cc(F)ccc1[C@@H](Oc1ccc2c(cnn2-c2ccc(F)cc2)c1)[C@H](C)NC(=O)C(F)(F)F [Example 156] is ___
Result block: 8.38

Query block: Fill in: pIC50 of Cc1ccc(C)c([C@@H](Oc2ccc3c(cnn3-c3ccc(F)cc3)c2)[C@H](C)NC(=O)C2(C)CC2)c1 [Example 215] is ___
Result block: 8.36
